# Tested on: PPARa:RXRa (NR concentration 270 nM, RXRa partner concentration 90 nM)
# protocol-text: PBM binding z-score (relative to random genomic background probes); higher = stronger binding; sequences stand for … in GC…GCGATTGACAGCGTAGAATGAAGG
Catalogue of PBM binding z-score values

Example entries begin here.
biosequence | target-under-test | PBM binding z-score
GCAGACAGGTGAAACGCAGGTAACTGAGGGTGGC | PPARa:RXRa (NR concentration 270 nM, RXRa partner concentration 90 nM) | 0.632
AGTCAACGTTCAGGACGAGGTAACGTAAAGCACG | PPARa:RXRa (NR concentration 270 nM, RXRa partner concentration 90 nM) | -0.416

In plain terms, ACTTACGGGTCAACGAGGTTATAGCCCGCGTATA has a documented PBM binding z-score of 5.47

Entry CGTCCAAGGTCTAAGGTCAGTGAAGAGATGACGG — recorded PBM binding z-score = 3

Reported PBM binding z-score for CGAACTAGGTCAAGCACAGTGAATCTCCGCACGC was 4.74

Data point: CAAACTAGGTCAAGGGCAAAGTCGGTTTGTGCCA ; PBM binding z-score = 5.38

Recorded PBM binding z-score (sequence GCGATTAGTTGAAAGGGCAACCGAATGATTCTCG ): 1.88

The value of PBM binding z-score measured for the sequence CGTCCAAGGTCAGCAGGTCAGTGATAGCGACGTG turned out to be 4.52

# credit: the supplement of paper PMC6555819
